- method: Pharmacokinetics (1): plasma and tissues after oral and intratracheal administration
- Format: in vivo, rats
- experimental.setup: rat, po; lung; rats; 30 mg/kg, p.o.; read-out: t1/2 (converted)

{"mol": "Cc1ccc(=O)n(-c2ccccc2)c1", "half-life / min": 47.9}

* * *

- method: Pharmacokinetics (1): plasma and tissues after oral and intratracheal administration
- Format: in vivo, rats
- experimental.setup: rat, po; skin; rats; 160 mg/kg

{"mol": "Cc1ccc(=O)n(-c2ccccc2)c1", "Cmax": "32900 ng/g"}

* * *

- method: Pharmacokinetics (1): plasma and tissues after oral and intratracheal administration
- Type: in vivo, rats
- experimental.setup: rat, po; eyes; rats; 30 mg/kg
observed.property: Cmax (ng/g)

{"molecule": "Cc1ccc(=O)n(-c2ccccc2)c1 [pirfenidone]", "unit.of.measurement": "ng/g", "result": 3950}

* * *

- method: Pharmacokinetics (1): plasma and tissues after oral and intratracheal administration
- Format: in vivo, rats
- experimental.setup: rat, po; lung; rats; 160 mg/kg
observed.property: MRT (h)

{"mol": "Cc1ccc(=O)n(-c2ccccc2)c1", "observed.property": "MRT", "unit.of.measurement": "h", "result": 1.32}

* * *

- method: Pharmacokinetics (1): plasma and tissues after oral and intratracheal administration
- Format: in vivo, rats
- experimental.setup: rat, po; plasma; rats; 160 mg/kg, p.o.; read-out: t1/2 (converted)

{"mol": "Cc1ccc(=O)n(-c2ccccc2)c1", "half-life [min]": 31.8}

* * *

- method: Pharmacokinetics (1): plasma and tissues after oral and intratracheal administration
- Type: in vivo, rats
- experimental.setup: rat, po; lung; rats; 30 mg/kg
observed.property: Cmax (ng/g)

{"mol": "Cc1ccc(=O)n(-c2ccccc2)c1", "result": 6460}

* * *

- method: Pharmacokinetics (1): plasma and tissues after oral and intratracheal administration
- Type: in vivo, rats
- experimental.setup: rat, po; skin; rats; 30 mg/kg

{"mol": "Cc1ccc(=O)n(-c2ccccc2)c1", "Cmax, ng/g": 8160}

* * *

- method: Pharmacokinetics (1): plasma and tissues after oral and intratracheal administration
- Assay type: in vivo, rats
- experimental.setup: rat, po; skin; rats; 30 mg/kg, p.o.; read-out: t1/2 (converted)
observed.property: half-life (h)

{"mol": "Cc1ccc(=O)n(-c2ccccc2)c1", "result": 1.07}

* * *

- method: Pharmacokinetics (1): plasma and tissues after oral and intratracheal administration
- Assay type: in vivo, rats
- experimental.setup: rat, po; skin; rats; 160 mg/kg, p.o.; read-out: t1/2 (converted)
observed.property: half-life (h)

{"mol": "Cc1ccc(=O)n(-c2ccccc2)c1", "result": 1.06}

* * *

- method: Pharmacokinetics (1): plasma and tissues after oral and intratracheal administration
- Assay type: in vivo, rats
- experimental.setup: rat, po; plasma; rats; 30 mg/kg

{"compound": "Cc1ccc(=O)n(-c2ccccc2)c1 [pirfenidone]", "Cmax [ng/mL]": 19700}

* * *

- method: Pharmacokinetics 2: transmigration of pirfenidone to tissue after single-dose administration
- Set-up: species or system rats
- experimental.setup: rat, in vivo, po, 160 mg/kg
observed.property: concentration at 1 h

{"mol": "Cc1ccc(=O)n(-c2ccccc2)c1", "observed.property": "concentration at 1 h", "result": "~20000 ng/g"}

* * *

- method: Pharmacokinetics (1): plasma and tissues after oral and intratracheal administration
- Type: in vivo, rats
- experimental.setup: rat, po; lung; rats; 160 mg/kg
- Experimental: However, the possibility of risk reduction of photodermatosis is not clear. In general, since drug-induced photodermatosis appear in the skin and eyes, the specific distribution of drug molecules in the skin and/or eyes could be a key consideration for evaluating the photodermatosis risk. Then, in order to verify the photosafety of the formulation 1, a pharmacokinetic study was undertaken after intratracheal administration of the formulation 1 at a pharmacologically effective dose (1 mg/kg). […]

{"compound": "Cc1ccc(=O)n(-c2ccccc2)c1 [pirfenidone]", "Cmax": "37600 ng/g"}

* * *

- method: Pharmacokinetics (1): plasma and tissues after oral and intratracheal administration
- Format: in vivo, rats
- experimental.setup: rat, po; plasma; rats; 160 mg/kg

{"mol": "Cc1ccc(=O)n(-c2ccccc2)c1", "Cmax, µg/mL": 135}

* * *

- method: Pharmacokinetics (1): plasma and tissues after oral and intratracheal administration
- Type: in vivo, rats
- experimental.setup: rat, po; skin; rats; 30 mg/kg
observed.property: MRT (h)

{"mol": "Cc1ccc(=O)n(-c2ccccc2)c1", "observed.property": "MRT", "result": 1.14}

* * *

- method: Pharmacokinetics (1): plasma and tissues after oral and intratracheal administration
- Assay type: in vivo, rats
- experimental.setup: rat, po; skin; rats; 160 mg/kg

{"molecule": "Cc1ccc(=O)n(-c2ccccc2)c1 [pirfenidone]", "MRT": "1.7 h"}

* * *

- method: Pharmacokinetics (1): plasma and tissues after oral and intratracheal administration
- Assay type: in vivo, rats
- experimental.setup: rat, po; eyes; rats; 160 mg/kg, p.o.; read-out: t1/2 (converted)
observed.property: half-life

{"mol": "Cc1ccc(=O)n(-c2ccccc2)c1", "result": "1.06 h"}

* * *

- method: Pharmacokinetics (1): plasma and tissues after oral and intratracheal administration
- Assay type: in vivo, rats
- experimental.setup: rat, po; eyes; rats; 160 mg/kg

{"compound": "Cc1ccc(=O)n(-c2ccccc2)c1 [pirfenidone]", "Cmax": "26000 ng/g"}

Provenance of the data: patent US9517204B2
